target_system: CDK4 (Homo sapiens (Human), UniProt P11802)
Sequence (P11802 whole entry): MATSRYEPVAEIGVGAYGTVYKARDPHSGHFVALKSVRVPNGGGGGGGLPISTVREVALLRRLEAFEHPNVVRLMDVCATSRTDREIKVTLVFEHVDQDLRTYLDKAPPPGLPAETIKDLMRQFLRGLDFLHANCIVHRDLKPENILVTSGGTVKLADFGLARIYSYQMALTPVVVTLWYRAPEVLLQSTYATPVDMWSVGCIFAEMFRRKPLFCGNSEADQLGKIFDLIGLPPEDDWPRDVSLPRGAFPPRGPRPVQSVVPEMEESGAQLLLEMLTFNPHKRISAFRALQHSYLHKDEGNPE
Sequence (P24385 whole entry partner): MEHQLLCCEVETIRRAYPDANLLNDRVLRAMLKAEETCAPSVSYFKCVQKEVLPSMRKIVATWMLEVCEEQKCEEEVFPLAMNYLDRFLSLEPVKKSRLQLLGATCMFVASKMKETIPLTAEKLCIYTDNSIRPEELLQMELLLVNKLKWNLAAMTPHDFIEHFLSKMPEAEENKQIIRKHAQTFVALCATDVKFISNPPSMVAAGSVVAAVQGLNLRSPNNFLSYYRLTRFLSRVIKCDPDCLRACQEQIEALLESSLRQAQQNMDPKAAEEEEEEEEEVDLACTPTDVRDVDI
pIC50: −log10 of the molar value.
Param threshold (8) applies to pIC50; output Satisfied when value >= threshold, Not satisfied when value < threshold.

See these solved cases before continuing.
CC(C)N1CCOc2c(F)cc(-c3nc(Nc4ccc(C5CCN(C)CC5)nc4)ncc3F)cc21 [Compound 33] : Satisfied
CC(C)N1CCOc2c(F)cc(-c3nc(Nc4ccc(C(=O)N5CCOCC5)c(F)c4)ncc3F)cc21 [Compound 457] : Satisfied
COCCN1CCN(Cc2ccc(Nc3ncc(F)c(-c4cc(F)c5c(c4)N(C(C)C)CCO5)n3)nc2)CC1 [Compound 524] : Satisfied

// next entry
Lookup: Check this molecule for pIC50 at or above 8: CC(C)N1CCOc2c(F)cc(-c3nc(Nc4ccc(C5CCN(C(=O)CO)CC5)cn4)ncc3F)cc21 [Compound 510]
Found: Satisfied
